# system: human squalene synthase (Homo sapiens)
# Construct: endogenous in cells; host or cells: HepG2 human hepatoma cells (microsomal fraction)
# Sequence (P37268 1-417): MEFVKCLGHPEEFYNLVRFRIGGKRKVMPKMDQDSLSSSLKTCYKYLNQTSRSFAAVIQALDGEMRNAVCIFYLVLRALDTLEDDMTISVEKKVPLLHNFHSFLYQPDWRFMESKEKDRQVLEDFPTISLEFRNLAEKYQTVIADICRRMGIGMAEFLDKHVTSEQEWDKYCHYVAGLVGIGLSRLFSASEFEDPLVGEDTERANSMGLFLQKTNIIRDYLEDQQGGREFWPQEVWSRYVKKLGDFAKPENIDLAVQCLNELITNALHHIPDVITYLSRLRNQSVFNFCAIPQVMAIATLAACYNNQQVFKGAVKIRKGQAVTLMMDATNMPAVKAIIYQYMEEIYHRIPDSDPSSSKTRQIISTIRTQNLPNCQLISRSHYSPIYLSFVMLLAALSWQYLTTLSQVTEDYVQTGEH
# measurement.description: Test on human squalene synthase inhibition (HepG2 microsomal fraction)
# Type: biochemical
# condition.summary: squalene synthase derived from human hepatoma (HepG2) cells; 2.5 μM 3H-FPP; 30° C., 20 minutes; read-out: IC50 value of squalene synthase inhibiting activity
Counter-ions that a name gives are not always drawn.
reported.property: pIC50
To interpret pIC50, take it as minus log10 of a concentration measured in moles per litre.

### Prompt Identify measured pIC50 corresponding to F/C(COc1ccc2c(c1)[nH]c1ccccc12)=C1/CN2CCC1CC2 [Example 1, hydrochloride]
### Response 7.10

All values here come from patent US5830902A.
